src = the supplement of paper PMC12764529

Assay procedure: folding stability dG unfold from chymotrypsin proteolysis; higher = more stable
Measured folding stability dG unfold of individual entries
Use kcal/mol as the unit, but write only the number.

Please review the following examples before continuing.
INSERT INTO measurements (chain_sequence, assay_readout, value) VALUES
  ('SAGGSAGGMKTITIELPPGPVRIRVRLAATGEEVTVEVDAETPTVTITIPEEGAEIVEIEIEPVSAGGSAGG [r6_977_TrROS_Hall]', 'folding stability dG unfold', 2.66),
  ('SAGGSAELVSVDVELEGRYLRVRARFRLPDGREVEVEVRFSLPGVPPAPPVFPYRDPETGELRLGLSAGGSA [r15_335_TrMRF]', 'folding stability dG unfold', 3.61),
  ('SMNITVTYDPETDTVTIEIDDEEIDPETLRELLDAIPPNVKRVIIHVDHPETARTVEELAKETGLPVEIASA [r9_919_TrMRF]', 'folding stability dG unfold', 3.2);

Prompt line: Name the recorded folding stability dG unfold of the sequence listed here: SMSTNLVVKEKLIPPGVLVVTYKKDGKPVKVETKVVVIPPQLVVEEVLYPGGKLALKTYDPLTGTPSFELSA [r9_343_JUSTAS]
Response line: 0.644

Prompt line: Specify reported folding stability dG unfold for the sequence shown: SAGGSAGGSAGAPPDVEEVTVTVTITNPDGSTTTTTVTATPEELAALAAAPGRPTAVSAESAGGSAGGSAGG [r17_313_JUSTAS]
Response line: 0.486

Prompt line: Write down folding stability dG unfold measured for item SAGGSAGGSAGQPKPLPGGGEVKVEVYPPNNGKKKKFEIPPNEPDWIKELAKPGYSVHIESAGGSAGGSAGG [r11_1006_TrROS]
Response line: 0.0183

Prompt line: Consider the sequence SAKIVIIPLGDKAIIIITDENGKTKTIELPGISKIEIKGDHLKIYDPKTGKLIIPPNWKGKDIIIIPGKSAG [r14_83_TrMRF] . State its measured folding stability dG unfold.
Response line: 3.32

Prompt line: Identify the reported folding stability dG unfold for the following entry. SAGGSVEFEETITDPLKSLEEAKALAEEIEAELKAKGYKVTVTVTVVPPGSVTATITVTTDPAKGKKASAGG [r13_697_JUSTAS]
Response line: 1.34

Prompt line: Give the measured folding stability dG unfold for SAMKVIVKIKIYDKNGKLVKEIEIPAEILEKDPEKLKELAEKLAEELKKKGYKVEIELVEVVPVEEEEESAG [r14_972_TrROS_Hall]
Response line: 4.5

Prompt line: Specify folding stability dG unfold for SAGGSMVIEAEIEFPDMTPEEVEERAEEIAEAAAEFARKKGFPIKKVEADVEVFPGEGVVKVTVTLEGSAGG [r13_212_TrMRF] and stop.
Response line: 0.204

Prompt line: State, in one line, measured folding stability dG unfold of SAGGSDTVVLDFTVTVDGKPYTVRVTLTRNPPTGEITVPVEIESANPEDAVPAREVADALVERLLSSAGGSA [r2_259_TrMRF]
Response line: 1.78

Prompt line: Identify the reported folding stability dG unfold for the following entry. SAGWIIKIYFPDKKKEIMISRFPDGQWWMVQVHDKKGEPRQTIPAGMPVDELLKDFPDAKVEVYPFEPPSAG [r5_314_TrROS]
Response line: 2.59

Prompt line: Please give measured folding stability dG unfold of the following entry: NINPEFMEKIVNEIANRMNQQGWKIKKVDIEPYPNGMIDIKVNGREIEFPWPNGRWFRIKVEAKRVPPEQRS [r1_31_TrROS]
Response line: 2.87

Prompt line: Respond only with folding stability dG unfold recorded for SAGGSAGGSAANVTREPRFDPSTNLVRTLVRFPDGSVREEILEITKNPDGTLTYKRFERPPSAGGSAGGSAG [r3_474_JUSTAS]
Response line: 1.59

###

Assay procedure: folding stability dG unfold (combined trypsin and chymotrypsin); higher = more stable
Short version: folding stability dG unfold at least 1 kcal/mol is YES, less is NO.

INSERT INTO assay_data (chain_sequence, discrete_label) VALUES
  ('SAGGSAGGSAGPGVLILRRRFVRPRLIPNTGKLYYEEVELTTNLPIGPIPPNWLNNPNGVSAGGSAGGSAGG [r17_493_TrMRF]', 'NO'),
  ('SAGGSAGGSAGGLEKLVELLAPGKPLEVLRIDPTPTYVRIVVRHPDYPVDTVILADPDVISAGGSAGGSAGG [r7_303_TrMRF]', 'NO'),
  ('SAGPEPVIRLAREHLERGEVLRITLTGRSGVPRTFLLRPEDILWFFDNLPDPSDIASVDIETYPLGYPPSAG [r5_956_TrMRF]', 'YES');

Prompt line: State whether the measured folding stability dG unfold reaches 1 kcal/mol, counting equality as reaching it, for SAGTREQVKAIAREIANEIWDTFPDMRGQKFKVKIKVEPEPNGWVRVKVTIQFPGGVQYTFPIWIPVESAGG [r19_194_TrROS]
Response line: YES

Prompt line: Reported folding stability dG unfold reaches at least 1 kcal/mol for SAAFAIKAIATPPNGKKYEILALDNGEGVLVFIENGSKEIPLEELIKLIENNPELKIEKIEIRPLSEFLSAG [r14_336_TrMRF] ?
Response line: NO

Prompt line: Reported folding stability dG unfold reaches at least 1 kcal/mol for SAGGSAGGSAGGSGDPNNPVTLLVLDVPSPEPAGTVYYFPDGYVAVNFPSINRTLVFYGSAGGSAGGSAGGS [r4_78_TrMRF] ?
Response line: YES

Prompt line: Please check the record SAGGMKKITITIPLEELKNLTPEERKEKLKELAEEIAKKLGLPPGAKIKKIEVEEVDGKLYVKIEIESAGGS [r16_368_TrROS_Hall] and state if its folding stability dG unfold is at or above 1 kcal/mol.
Response line: YES

Prompt line: Has SAGGSAGGDKNAKPQPIMIAIEIYNPNGRKQEHTFPFESLDDAKEFIEDWLPPGYQVKVDIYPVSAGGSAGG [r6_290_TrROS] a recorded folding stability dG unfold greater than or equal to 1 kcal/mol?
Response line: NO

Prompt line: Assess whether reported folding stability dG unfold for SMTTRESTIDASIPGYTVSKVSVTTLPGGERKITITLPSGKVLVLSTPADPALVPLTVTSEFSPEEVAAKSA [r9_1075_JUSTAS] sits at 1 kcal/mol or higher.
Response line: NO

###

Assay procedure: folding stability dG unfold (combined trypsin and chymotrypsin); higher = more stable
Where folding stability dG unfold equals or exceeds 2 kcal/mol, the correct label is Met; where it does not, the label is Not met.

INSERT INTO measurements (chain_sequence, discrete_label) VALUES
  ('SAGGSAEQTATIESVEYNEETGELTIRIRLENGEEVEITVKPDGTITITLPPGAKITEIEIERLPPSAGGSA [r15_959_TrROS_Hall]', 'Met');

With those in mind, consider the next sequence.
Prompt line: Hi team, for SAGGSAGGSMLPLPIESIEVVPRRAPGGKTYYVAFIRLKADGKPLVIEFEADNPGEALEKLEASAGGSAGGS [r20_238_TrMRF] , is the recorded folding stability dG unfold at or above 2 kcal/mol?
Response line: Not met

###

folding stability dG unfold overview
Assay procedure: folding stability dG unfold from chymotrypsin proteolysis; higher = more stable
Please give a number only; it is taken to be in kcal/mol.

Recorded folding stability dG unfold, per entry:
INSERT INTO measurements (chain_sequence, unit_of_measurement, value) VALUES
  ('SAGGSAGGGIDLSNPEDIEEALKKSGIVGVFKVKIIPLPGGKWKKIIEPVKLLPKEELEKAGLISAGGSAGG [r6_402_TrMRF]', 'kcal/mol', 0.444),
  ('SAGGMPPGSFRVRARRPVPLFVRVRLPNDPDVTVTFPVTVPAELELPVNSPEALEALREAGFEIEPASAGGS [r8_482_TrMRF]', 'kcal/mol', 0.114),
  ('SAGGSGMSFSITEEVVIPTPGPRTLLLLKTEGDIIIVERDGERLRPVKTVPRKEVPEEPEKLIEELSAGGSA [r2_133_JUSTAS]', 'kcal/mol', -0.243),
  ('SAGGSAGGSASIGGGPTGHSYKITLPNGTEKFLVMDPSTLKELIEKLGVKEVEVKDIGPLQSAGGSAGGSAG [r3_141_JUSTAS]', 'kcal/mol', 0.0184),
  ('SAGGSAGGSKTVVITLPENEELGLEKLEELIEKVGPDAKIIISRWDPETGKVDYLVIETGEGKSAGGSAGGS [r12_913_TrMRF]', 'kcal/mol', 1.92),
  ('SMATVLSVSENPENPDTLSFEVELPDSPMSVTVPKDPKTGKYTMTVETPEATTTRDFTSLEDALAYIERASA [r9_366_JUSTAS]', 'kcal/mol', 0.758),
  ('SAGGGSSYTLLSESTSTDPATGATLTTTTYRAPDGTIYYDSTLTAPDGTTTGTATAVDPDGTPVTIALSAGG [r13_573_JUSTAS]', 'kcal/mol', 1.39),
  ('SAGGMANPEDFKVVESLEFRDPDNGKPFTIEIAKPPDNNVPIMIWHNGSMYMFVIDGDKIEVFPIKNSAGGS [r16_711_TrROS]', 'kcal/mol', 1.88);

Continue with the next sequence.
Prompt line: For the sequence SAGYIIGYPIIEELFNAGKPEEIRKILKEAVEKDPDKIIIIEVPENPEIAKAIEEAFKEEGIPLIIIPESAG [r14_236_TrMRF] , report folding stability dG unfold.
Response line: 0.81
